From: patent US7232912B2

Target: FGFR1 tyrosine kinase (Homo sapiens, UniProt P11362, C488A/C584S/L457V)
Construct: the cytosolic domain of FGFR1 tyrosine kinase (amino acids 456–766); made in house; host or cells: Sf9 insect cells (baculovirus)
Sequence (P11362 456-766 L457V/C488A/C584S): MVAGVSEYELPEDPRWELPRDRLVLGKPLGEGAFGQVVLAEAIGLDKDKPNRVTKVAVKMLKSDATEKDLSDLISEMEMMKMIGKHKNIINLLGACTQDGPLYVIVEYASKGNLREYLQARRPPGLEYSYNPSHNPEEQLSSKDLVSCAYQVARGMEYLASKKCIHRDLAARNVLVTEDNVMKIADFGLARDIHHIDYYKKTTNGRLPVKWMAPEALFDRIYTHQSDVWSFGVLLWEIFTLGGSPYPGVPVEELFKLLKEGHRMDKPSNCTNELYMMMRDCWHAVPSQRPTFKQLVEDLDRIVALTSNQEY
Assay: Inhibition of phosphorylated FGF receptor tyrosine kinase activity
Type: biochemical
Settings: read-out: FGF % Inhib. at 1 μM
Description: Inhibition of Phosphorylated FGF Receptor and LCK Tyrosine Kinase Activity […] Tyrosine kinase activity was measured using a coupled, continuous spectrophotometric assay, in which production of phosphorylated poly(Glu, Tyr; 4:1) substrate and ADP is coupled to the pyruvate kinase-catalyzed transfer of a phosphate from phosphoenolpyruvate to ADP, with generation of pyruvate and regeneration of ATP. […] Percent inhibition was calculated relative to control enzyme assayed in the presence of 2% (v/v) DMSO.
Parameter: inhibition at 1 µM. Scope: all listed entries.
READOUT_LABEL: inhibition at 1 µM (%)

- Cc1c(CCCO)cncc1-c1ccc2[nH]nc(-c3nc4ccccc4[nH]3)c2c1: 40.8
- Cc1c(CO)cncc1-c1ccc2[nH]nc(-c3nc4ccccc4[nH]3)c2c1: 48.6
- Cc1c(O)cccc1-c1ccc2[nH]nc(-c3nc4c(O)cccc4[nH]3)c2c1: 54
- O=C(Nc1cccc2c(-c3ccc4[nH]nc(-c5nc6ccccc6[nH]5)c4c3)cncc12)c1cccnc1: 83.6
- Cc1c(O)cccc1-c1ccc2[nH]nc(/C=C/c3ccccc3)c2c1: 87
- COc1c(O)cccc1-c1ccc2[nH]nc(-c3nc4ccccc4[nH]3)c2c1: 81.1
- CCNCc1cncc(-c2ccc3[nH]nc(-c4nc5ccccc5[nH]4)c3c2)c1C: 82.6
- Fc1cccc2cncc(-c3ccc4[nH]nc(/C=C/c5ccccc5)c4c3)c12: 56.2

* * *

Target: CDK2/cyclin A (Homo sapiens)
Construct: cyclin A: E. coli
Assay: Inhibition of CDK2/Cyclin A Retinoblastoma Kinase Activity
Conditions: apparent Ki
Procedure: Cyclin-dependent kinase activity was measured by quantifying the enzyme-catalyzed, time-dependent incorporation of radioactive phosphate from [^32P]ATP or [^33P]ATP into a protein substrate. […] The phosphorylated substrate was then captured on a nitrocellulose or phosphocellulose membrane using a 96-well filtration manifold, and unincorporated radioactivity was removed by repeated washing with 0.85% phosphoric acid. Radioactivity was quantified by exposing the dried membranes to a phosphorimager. […]
pKi: −log10 of the molar value.
READOUT_LABEL: pKi

* CCNCc1cncc(-c2ccc3[nH]nc(-c4nc5c(SC)cccc5[nH]4)c3c2)c1C [Example 81] | 8.31
* O=[N+]([O-])c1ccc2[nH]nc(-c3ccccc3)c2c1 [Intermediate 11a, 5-Nitro-3-phenyl-1H-indazole] | 4.89
* Clc1cccc2[nH]c(-c3n[nH]c4ccc(-c5cncc6ccccc56)cc34)nc12 [Example 19] | 9.00
* C(=N\n1cccc1)/c1n[nH]c2ccc(-c3cncc4ccccc34)cc12 [Example 79] | 9.38
* Cc1c(-c2cccnc2)cncc1-c1ccc2[nH]nc(-c3nc4ccccc4[nH]3)c2c1 [Example 58] | 9.00
* Cc1c(-c2ccc3[nH]nc(-c4nc5ccccc5[nH]4)c3c2)cncc1-c1ccccn1 [Example 62] | 8.43
* CS(=O)(=O)Nc1ccc2nc(-c3n[nH]c4ccc(-c5cncc6ccccc56)cc34)[nH]c2c1 [Example 70] | 9.64
* OC1CCCN(c2ccc3[nH]nc(/C=C/c4ccccc4)c3c2)C1 (stereo not drawn) [Example 28] | 6.14
* Cc1c(CCCO)cncc1-c1ccc2[nH]nc(-c3nc4ccccc4[nH]3)c2c1 [Example 60] | 9.22
* c1ccc2c(-c3ccc4[nH]nc(-c5nc6c([nH]5)CCCC6)c4c3)cncc2c1 [Example 66] | 9.00
* Cc1c(-c2ccncc2)cncc1-c1ccc2[nH]nc(-c3nc4ccc(NS(C)(=O)=O)cc4[nH]3)c2c1 [Example 71] | 9.00
* Oc1ccc(F)c(-c2ccc3[nH]nc(-c4nc5ccccc5[nH]4)c3c2)c1F [Example 49] | 7.31
